The reported numbers originate from ChEMBL document CHEMBL3822383.

target: Prostaglandin G/H synthase 1 (Homo sapiens); experiment: Inhibition of human COX1 using arachidonic acid assessed as production of PGF2alpha after 5 mins by ELISA
Sequence (P23219 whole entry): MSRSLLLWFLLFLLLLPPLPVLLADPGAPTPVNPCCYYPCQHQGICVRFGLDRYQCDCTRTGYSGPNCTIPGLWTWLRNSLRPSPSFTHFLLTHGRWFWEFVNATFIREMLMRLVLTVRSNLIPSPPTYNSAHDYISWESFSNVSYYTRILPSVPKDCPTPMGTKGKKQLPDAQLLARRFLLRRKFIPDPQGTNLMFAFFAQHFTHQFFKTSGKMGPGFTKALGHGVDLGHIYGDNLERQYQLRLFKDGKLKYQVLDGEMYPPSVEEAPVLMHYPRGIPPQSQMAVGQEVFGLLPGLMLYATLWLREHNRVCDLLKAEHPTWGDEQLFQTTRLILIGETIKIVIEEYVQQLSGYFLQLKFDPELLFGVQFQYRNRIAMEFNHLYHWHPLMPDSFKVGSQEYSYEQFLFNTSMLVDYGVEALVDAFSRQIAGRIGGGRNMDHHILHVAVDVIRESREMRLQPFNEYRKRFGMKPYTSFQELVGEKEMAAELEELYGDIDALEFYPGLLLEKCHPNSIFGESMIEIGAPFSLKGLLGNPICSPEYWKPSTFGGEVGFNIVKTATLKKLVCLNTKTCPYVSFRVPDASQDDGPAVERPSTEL
List of IC50 values.
// return numeric value only (unit: µM, not printed)

| structure_string | readout_kind | numeric_value |
| --- | --- | --- |
| NS(=O)(=O)c1ccc(-n2nc(C(=O)N/N=C/c3c(Cl)c4ccccc4oc3=O)cc2-c2cccc(F)c2)cc1 | IC50 | 74.3 |

Prompt: Look up IC50 for this molecule: "COc1ccc(-c2cc(C(=O)N/N=C/c3c(Cl)c4ccccc4oc3=O)nn2-c2ccc(S(N)(=O)=O)cc2)cc1"
Response: 84.3

Prompt: Look up IC50 for this molecule: "Cc1cccc(-c2cc(C(=O)N/N=C/c3c(Cl)c4ccccc4oc3=O)nn2-c2ccc(S(N)(=O)=O)cc2)c1"
Response: 48.2

Prompt: Look up IC50 for this molecule: "NS(=O)(=O)c1ccc(-n2nc(C(=O)N/N=C/c3c(Cl)c4ccccc4oc3=O)cc2-c2ccc(F)cc2)cc1"
Response: 53.4
